The measurements presented in this section are drawn from patent US8772480B2.

IC50 overview
- System: phosphorylation of Akt at Serine 473 in U87 MG cells
- Method summary: cells
- Details: Homo sapiens, U-87 MG, 2 h, read-out: U87Cell IC50, pAkt (Ser 473), U87 MG cells, two hours with compound
Parameter measured: IC50 (nM)

>>> assay_value("COc1ncc(Nc2ncc(C3=CCOCC3)cc2-c2nc(C)nc(N)n2)cc1F")
15
>>> assay_value("Cc1nc(-c2cccnc2Nc2ccc(NC(=O)C3CC3)cc2)c2nc[nH]c2n1")
92
>>> assay_value("Cc1nc(N)nc(-c2cc(C(C)N3CCN(C(=O)N(C)C)CC3)cnc2Nc2ccc3scnc3c2)n1 (stereo not drawn)")
111
>>> assay_value("Cc1nc(N)cc(-c2cc(C(C)N3CCOCC3)cnc2Nc2cnc(Cl)c(NS(=O)(=O)N(C)C)c2)n1 (stereo not drawn)")
46
>>> assay_value("Cc1nc(N)nc(-c2cccnc2Nc2ccc(NC(=O)Nc3ccccc3)nc2)n1")
891
>>> assay_value("COc1ncc(Nc2ncc(CN3CCN(S(C)(=O)=O)[C@H](C)C3)cc2-c2nc(C)nc(N)n2)cc1F")
7

* * *

POC (Percent of control) AKT2 overview
- Tested system: ProfilerPro Kinase Selectivity Assay Kit kinases (Homo sapiens, UniProt P31751)
- Assay type: biochemical
- Details: AKT2; 1 μM compound concentration
Parameter measured: POC (Percent of control) AKT2 (POC)

>>> assay_value("COc1ccc(Nc2ncc(CN3CCN(C(C)=O)CC3)cc2-c2nc(C)nc3[nH]cnc23)cn1 [Example 89]")
93
>>> assay_value("COc1ccc(Nc2ncc(Cc3ccc(S(C)(=O)=O)cc3)cc2-c2nc(C)nc3[nH]cnc23)cn1 [Example 103]")
89
>>> assay_value("Cc1nc(N)nc(-c2cccnc2Nc2cccc3[nH]ccc23)n1 [Example 22]")
97
>>> assay_value("Cc1nc(N)nc(-c2cc(CN3CCN(S(C)(=O)=O)CC3)cnc2Nc2cccc(O)c2)n1 [Example 30]")
105
>>> assay_value("Cc1nc(N)cc(-c2cccnc2Nc2cccc3[nH]ncc23)n1 [Example 27]")
95
>>> assay_value("Cc1cnc(Nc2cccc3[nH]ccc23)c(-c2nc(C)nc(N)n2)c1 [Example 46]")
110
>>> assay_value("c1cnc(Nc2cccc3[nH]ccc23)c(-c2ncnc3[nH]cnc23)c1 [Example 19]")
110
>>> assay_value("c1cnc(Nc2cccc3[nH]ncc23)c(-c2ncnc3[nH]cnc23)c1 [Example 18]")
93
>>> assay_value("Cc1cnc(Nc2cccc3[nH]ncc23)c(-c2nc(C)nc(N)n2)c1 [Example 47]")
74
>>> assay_value("Cc1nc(N)nc(-c2cccnc2Nc2cccc(O)c2)n1 [Example 23]")
112

* * *

- System: phosphorylation of Akt at Serine 473 in U87 MG cells
- Method summary: cells
- Details: Homo sapiens, U-87 MG, 2 h, read-out: U87Cell IC50, pAkt (Ser 473), U87 MG cells, two hours with compound
pIC50: −log10 of the molar value.
Classification field: enter Condition met for pIC50 values not below 7, Condition not met for values below it.

>>> label_value("Cc1nc(N)nc(-c2cc(Cl)cnc2NC2CCOCC2)n1")
"Condition not met"
>>> label_value("COC(=O)Nc1ccc(Nc2ncc(Cl)cc2-c2nc(C)nc(N)n2)cn1")
"Condition not met"
>>> label_value("Cc1nc(N)nc(-c2cc([C@H](C)N3CCOCC3)cnc2Nc2cnc(Cl)c(NS(C)(=O)=O)c2)n1 (single isomer, unassigned)")
"Condition met"
>>> label_value("Cc1nc(N)nc(-c2cc(CN3CCN(S(C)(=O)=O)CC3)cnc2Nc2cc(F)cc3[nH]ncc23)n1")
"Condition met"
>>> label_value("COc1ccc(Nc2ncc(CNCc3cccnc3)cc2-c2nc(C)nc3[nH]cnc23)cn1")
"Condition not met"
>>> label_value("COc1ccc(Nc2nc(N(C)C)ncc2-c2nc(C)nc(N)n2)cn1")
"Condition not met"
>>> label_value("COc1ncc(Nc2ncc([C@@H](C)N3CCN(S(C)(=O)=O)C[C@@H]3C)cc2-c2nc(C)nc(N)n2)cn1")
"Condition met"
>>> label_value("Cc1nc(N)nc(-c2cc(C(C)N3CCOCC3)cnc2Nc2cnc(Cl)c(NS(=O)(=O)N(C)C)c2)n1 (stereo not shown)")
"Condition met"
>>> label_value("Cc1nc(N)nc(-c2cc([C@@H](C)N3CCN(S(C)(=O)=O)CC3)cnc2Nc2ccc(Cl)nc2)n1")
"Condition met"
>>> label_value("C=Cc1cnc(Nc2ccc(OC)nc2)c(-c2nc(C)nc3[nH]cnc23)c1")
"Condition not met"
>>> label_value("Cc1nc(N)nc(-c2cc(Cl)cnc2Nc2cncc(F)c2)n1")
"Condition not met"
>>> label_value("COCCOc1ccc(-c2nc(C)nc(N)n2)c(Nc2cnc(OC)c(F)c2)n1")
"Condition not met"
>>> label_value("COc1ccc(Nc2ncc(CNCCO)cc2-c2nc(C)nc(N)n2)cn1")
"Condition not met"
>>> label_value("Cc1nc(N)nc(-c2cc(CN3CCN(S(C)(=O)=O)CC3)cnc2Nc2ccc3ocnc3c2)n1")
"Condition met"
>>> label_value("COc1ccc(Nc2ccncc2-c2nc(C)nc3[nH]cnc23)cn1")
"Condition not met"

* * *

- System: ProfilerPro Kinase Selectivity Assay Kit kinases
- Type: biochemical
- Details: PKC beta2; 1 μM compound concentration
POC (Percent of control) PKC beta2 under 100 POC gets Criterion met, anything at or over 100 POC gets Criterion not met.

>>> label_value("COc1ccc(Nc2ncccc2-c2ncnc3[nH]cnc23)cn1")
"Criterion not met"
>>> label_value("Cc1cnc(Nc2cccc3[nH]ccc23)c(-c2nc(C)nc(N)n2)c1")
"Criterion met"
>>> label_value("CCc1cnc(Nc2ccc(OC)nc2)c(-c2nc(C)nc3[nH]cnc23)c1")
"Criterion met"
>>> label_value("Cc1nc(N)nc(-c2cc(CN3CCN(S(C)(=O)=O)CC3)cnc2Nc2cccc(O)c2)n1")
"Criterion met"
>>> label_value("c1cnc(Nc2cccc3[nH]ncc23)c(-c2ncnc3[nH]cnc23)c1")
"Criterion met"

* * *

POC (Percent of control) SGK1 overview
- Tested system: ProfilerPro Kinase Selectivity Assay Kit kinases (Homo sapiens, UniProt O00141)
- Assay type: biochemical
- Details: SGK1; 1 μM compound concentration
Parameter measured: POC (Percent of control) SGK1 (POC)

>>> assay_value("Cc1nc(N)nc(-c2cccnc2Nc2cccc3[nH]ccc23)n1 [Example 22]")
99
>>> assay_value("Cc1nc(-c2cccnc2Nc2cccc3[nH]ncc23)c2nc[nH]c2n1 [Example 57]")
92
>>> assay_value("Cc1nc(N)nc(-c2cccnc2Nc2cccc(O)c2)n1 [Example 23]")
102
>>> assay_value("Cc1cnc(Nc2cccc3[nH]ncc23)c(-c2nc(C)nc(N)n2)c1 [Example 47]")
89
>>> assay_value("COc1ccc(Nc2ncccc2-c2nc(C)nc3[nH]cnc23)cn1 [Example 58]")
97
>>> assay_value("c1cnc(Nc2cccc3[nH]ncc23)c(-c2ncnc3[nH]cnc23)c1 [Example 18]")
97
>>> assay_value("c1cnc(Nc2cccc3[nH]ccc23)c(-c2ncnc3[nH]cnc23)c1 [Example 19]")
88
>>> assay_value("COc1ccc(Nc2ncc(CN3CCN(C(C)=O)CC3)cc2-c2nc(C)nc3[nH]cnc23)cn1 [Example 89]")
92
>>> assay_value("Cc1cnc(Nc2cccc3[nH]ccc23)c(-c2nc(C)nc(N)n2)c1 [Example 46]")
89

* * *

pIC50 overview
- Test system: phosphorylation of Akt at Serine 473 in U87 MG cells
- Method summary: cells
- Details: Homo sapiens, U-87 MG, 2 h, read-out: U87Cell IC50, pAkt (Ser 473), U87 MG cells, two hours with compound
pIC50: −log10 of the molar value.
Parameter measured: pIC50

>>> assay_value("Cc1nc(N)nc(-c2cc(F)cnc2Nc2cncc(F)c2)n1")
"< 5.00"
>>> assay_value("COc1ncc(Nc2ncc(C(=O)N3CCN(S(C)(=O)=O)CC3)cc2-c2nc(C)nc(N)n2)cc1F")
7.43
>>> assay_value("Cc1ccc2cc(Nc3ncccc3-c3nc(C)nc(N)n3)ccc2n1")
"< 5.00"

* * *

- Test system: phosphorylation of Akt at Serine 473 in U87 MG cells
- Method summary: cells
- Details: Homo sapiens, U-87 MG, 2 h, read-out: U87Cell IC50, pAkt (Ser 473), U87 MG cells, two hours with compound
IC50 overview
Parameter measured: IC50 (µM)

>>> assay_value("COc1ncc(Nc2ncc(C(=O)N3CCC(O)CC3)cc2-c2nc(C)nc(N)n2)cc1F [Example 176]")
0.134
>>> assay_value("COc1ccc(Nc2ncc(-c3cncc(F)c3)cc2-c2nc(C)nc(N)n2)cn1 [Example 253]")
0.28
>>> assay_value("Cc1nc(N)nc(-c2cccnc2Nc2ccc3oc(C)nc3c2)n1 [Example 165]")
2.59
>>> assay_value("CC(=O)Nc1ccc(Nc2ncc(CN3CCN(S(C)(=O)=O)CC3)cc2-c2nc(C)nc(N)n2)cc1F [Example 267]")
0.486
>>> assay_value("COc1ccc(Nc2ncc([C@@H](O)C(F)(F)F)cc2-c2nc(C)nc(N)n2)cn1 [Example 322]")
0.051
>>> assay_value("COCCNC(=O)c1cnc(Nc2ccc(OC)nc2)c(-c2nc(C)nc(N)n2)c1 [Example 153]")
0.11
>>> assay_value("COc1ccc(Nc2ncc(CN3CCOCC3=O)cc2-c2nc(C)nc(N)n2)cn1 [Example 154]")
0.079
>>> assay_value("COc1ccc(Nc2nc(N3CCCC3)ncc2-c2nc(C)nc(N)n2)cn1 [Example 122]")
0.725
>>> assay_value("COc1ccc(Nc2ncc(N3CCOCC3)cc2-c2nc(C)nc3[nH]cnc23)cn1 [Example 97]")
0.441
